- runDescription: Oral bioavailability in rat at 10 mg/kg
- Format: ADME, organism-based
- experimentalSetup: in vivo
# label = label 1 if bioavailability >= 5% else label 0

Answered cases to consult:
CC(C)(C)CN1Cc2c(cc(Cl)c3[nH]ncc23)C[C@@H](CC(=O)N2CCC(c3cc4ccccc4[nH]c3=O)CC2)C1=O label 0
O=C(C[C@@H]1Cc2cc(Cl)c3[nH]ncc3c2CN(CC(F)(F)F)C1=O)N1CCC(c2cc3ccccc3[nH]c2=O)CC1 label 0

Please tell me: is the compound O=C(C[C@@H]1Cc2cc(Cl)c3[nH]ncc3c2CN(CC(F)(F)F)C1=O)N1CCC(n2c(=O)[nH]c3ncccc32)CC1 at or over 5% in terms of bioavailability?
label 1

Please tell me: is the compound CC(C)(C)CN1Cc2c(cc(Cl)c3[nH]ncc23)C[C@@H](CC(=O)N2CCC(N3Cc4ccccc4NC3=O)CC2)C1=O at or over 5% in terms of bioavailability?
label 0

Please tell me: is the compound CC(C)(C)CN1Cc2c(cc(Cl)c3[nH]ncc23)C[C@@H](CC(=O)N2CCC(c3cc4cccc(F)c4[nH]c3=O)CC2)C1=O at or over 5% in terms of bioavailability?
label 1

Please tell me: is the compound O=C(C[C@@H]1Cc2cc(Cl)c3[nH]ncc3c2CN(CC(F)(F)F)C1=O)N1CCC(N2CCc3ccccc3NC2=O)CC1 at or over 5% in terms of bioavailability?
label 1

Please tell me: is the compound CC(C)(C)CN1Cc2c(cc(Cl)c3[nH]ncc23)C[C@@H](CC(=O)N2CCC(N3Cc4cccc(F)c4NC3=O)CC2)C1=O at or over 5% in terms of bioavailability?
label 0

====

- runDescription: Metabolic stability in dog liver microsomes assessed as half life
- Assay type: ADME, Canis lupus familiaris, Microsome
quantityName: half-life (min)
Quick reminder: number only, in min, skip the unit.

Noted for O=C(C[C@@H]1Cc2cc(Cl)c3[nH]ncc3c2CN(CC(F)(F)F)C1=O)N1CCC(N2CCc3ccccc3NC2=O)CC1 : its half-life reads 3.1

====

- runDescription: Protein binding human plasma assessed as unbound fraction
- Format: ADME, cell-free
quantityName: fraction unbound

Noted for O=C(C[C@@H]1Cc2cc(Cl)c3[nH]ncc3c2CN(CC(F)(F)F)C1=O)N1CCC(N2CCc3ccccc3NC2=O)CC1 : its fraction unbound reads 0.028

====

- testedSystem: Calcitonin gene-related peptide type 1 receptor (Homo sapiens, UniProt O60894+Q16602)
- Sequence (Q16602 whole entry, one chain of several): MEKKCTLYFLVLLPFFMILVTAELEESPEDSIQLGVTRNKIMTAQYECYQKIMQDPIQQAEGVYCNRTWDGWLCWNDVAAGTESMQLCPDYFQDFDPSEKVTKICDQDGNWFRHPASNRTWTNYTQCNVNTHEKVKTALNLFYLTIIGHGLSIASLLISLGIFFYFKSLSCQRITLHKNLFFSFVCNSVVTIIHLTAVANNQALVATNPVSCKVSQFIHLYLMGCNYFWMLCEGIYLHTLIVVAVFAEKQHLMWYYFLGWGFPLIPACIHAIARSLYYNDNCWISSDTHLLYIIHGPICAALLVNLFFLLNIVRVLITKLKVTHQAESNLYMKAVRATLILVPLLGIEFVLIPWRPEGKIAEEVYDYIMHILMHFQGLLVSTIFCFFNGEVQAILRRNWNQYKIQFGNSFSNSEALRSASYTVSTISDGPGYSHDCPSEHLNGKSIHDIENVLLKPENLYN
- runDescription: Antagonist activity at human CGRP receptor
pKi: −log10 of the molar value.
# label = y if pKi >= 9 else n

CC(C)(C)CN1Cc2c(cc(Cl)c3[nH]ncc23)C[C@@H](CC(=O)N2CCC(N3Cc4ccccc4NC3=O)CC2)C1=O y
O=C(C[C@@H]1Cc2cc(Cl)c3[nH]ncc3c2CN(CC(F)(F)F)C1=O)N1CCC(n2c(=O)[nH]c3ncccc32)CC1 y
O=C(N[C@@H]1Cc2ccc3[nH]ncc3c2CN(C2CCNCC2)C1=O)N1CCC(N2Cc3ccccc3NC2=O)CC1 n

Please tell me: is the compound O=C(N[C@@H]1Cc2ccc3[nH]ncc3c2CN(Cc2ccccc2)C1=O)N1CCC(N2Cc3ccccc3NC2=O)CC1 at or over 9 in terms of pKi?
n

====

- testedSystem: Calcitonin gene-related peptide type 1 receptor (Homo sapiens, UniProt O60894+Q16602)
- runDescription: Antagonist activity at human CGRP receptor
# pKi listing for each entry below
Please express pKi as -log10 of the molar concentration.

O=C(C[C@@H]1Cc2cc(Cl)c3[nH]ncc3c2CN(CC(F)(F)F)C1=O)N1CCC(c2cc3ccccc3[nH]c2=O)CC1 9.27
O=C(N[C@@H]1Cc2cc(Cl)c3[nH]ncc3c2CN(Cc2ccccc2)C1=O)N1CCC(N2Cc3ccccc3NC2=O)CC1 9.00
CC(C)(C)CN1Cc2c(cc(Cl)c3[nH]ncc23)C[C@@H](NC(=O)N2CCC(N3Cc4ccccc4NC3=O)CC2)C1=O 8.82

Consider the additional compound presented here.
Noted for CC(C)(C)CN1Cc2c(cc(Cl)c3[nH]ncc23)C[C@@H](CC(=O)N2CCC(c3cc4ccccc4[nH]c3=O)CC2)C1=O : its pKi reads 9.12

Data origin, for the record: ChEMBL document CHEMBL4673257
